src = patent US20210087291A1

targetUnderTest: human TIM-3 on cells (human, UniProt Q8TDQ0 22-301)
experimentalDetails: cell-based or functional assay
Please assign f whenever IFN-gamma release in MLR at 10 µg/ml, % of IL-2 control is at or above 30%, and t whenever it is below.

Exercise: Below 30% on IFN-gamma release in MLR at 10 µg/ml, % of IL-2 control? Entry Tim3_0016 (antibody, V domains shown, also called clone 0016) VH: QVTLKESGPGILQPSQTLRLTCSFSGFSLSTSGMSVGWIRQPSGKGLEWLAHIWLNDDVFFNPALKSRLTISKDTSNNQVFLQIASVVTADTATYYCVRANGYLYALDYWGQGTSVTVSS VL: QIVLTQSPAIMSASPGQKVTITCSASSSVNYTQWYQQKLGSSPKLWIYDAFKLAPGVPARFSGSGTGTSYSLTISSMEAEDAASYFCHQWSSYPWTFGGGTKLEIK
Solution: t

Exercise: Below 30% on IFN-gamma release in MLR at 10 µg/ml, % of IL-2 control? Entry Tim3_0026 (antibody, V domains shown) VH: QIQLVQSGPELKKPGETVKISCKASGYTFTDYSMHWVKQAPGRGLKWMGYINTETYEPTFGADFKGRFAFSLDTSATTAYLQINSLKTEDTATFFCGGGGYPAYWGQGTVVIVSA VL: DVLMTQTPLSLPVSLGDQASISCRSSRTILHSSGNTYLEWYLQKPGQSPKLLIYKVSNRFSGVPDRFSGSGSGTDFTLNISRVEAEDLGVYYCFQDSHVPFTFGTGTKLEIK
Solution: t

Exercise: Below 30% on IFN-gamma release in MLR at 10 µg/ml, % of IL-2 control? Entry Tim3_0038 (antibody, V domains shown) VH: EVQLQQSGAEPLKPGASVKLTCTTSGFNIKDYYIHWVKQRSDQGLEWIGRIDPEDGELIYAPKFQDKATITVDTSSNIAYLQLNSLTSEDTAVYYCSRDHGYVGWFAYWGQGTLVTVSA VL: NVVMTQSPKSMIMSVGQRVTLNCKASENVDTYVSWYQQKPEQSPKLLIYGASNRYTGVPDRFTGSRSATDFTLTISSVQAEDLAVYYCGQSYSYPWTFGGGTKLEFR
Solution: f

Exercise: Below 30% on IFN-gamma release in MLR at 10 µg/ml, % of IL-2 control? Entry Tim3_0021 (antibody, V domains shown) VH: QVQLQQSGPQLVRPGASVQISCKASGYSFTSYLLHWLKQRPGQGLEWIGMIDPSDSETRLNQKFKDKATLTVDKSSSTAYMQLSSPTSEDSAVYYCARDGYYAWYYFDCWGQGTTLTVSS VL: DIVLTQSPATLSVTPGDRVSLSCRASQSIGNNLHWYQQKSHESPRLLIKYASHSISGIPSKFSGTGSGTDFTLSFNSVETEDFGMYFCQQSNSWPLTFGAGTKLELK
Solution: f

Exercise: Below 30% on IFN-gamma release in MLR at 10 µg/ml, % of IL-2 control? Entry Tim3_0030 (antibody, V domains shown) VH: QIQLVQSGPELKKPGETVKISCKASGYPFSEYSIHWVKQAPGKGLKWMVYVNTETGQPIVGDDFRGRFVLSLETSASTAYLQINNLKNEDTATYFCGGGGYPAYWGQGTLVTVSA VL: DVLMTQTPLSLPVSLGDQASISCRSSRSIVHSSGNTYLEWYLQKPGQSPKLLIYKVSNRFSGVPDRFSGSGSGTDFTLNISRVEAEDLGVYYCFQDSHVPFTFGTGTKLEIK
Solution: t
